assay: Chemical stability in hydrogen peroxide upto 48 hrs; format: physicochemical; conditions: read-out: Stability
Readout: remaining at 48 h

| Item smiles | Readout | Test result |
| --- | --- | --- |
| Cc1cc(-c2ccccc2)nnc1N1CCN(c2ncccn2)CC1.Cl.O | remaining at 48 h | < 10% |
